Experiment: Pharmacokinetics in ICR mice after intravenous and intragastric administration
Type: in vivo
Details: male, ICR, mouse, plasma, po, 5 mg/kg, ICR mice, PO 5 mg/kg, individual animal; read-out: MRT(0-t)
Where MRT last equals or exceeds 3 h, the correct label is Fulfilled; where it does not, the label is Not fulfilled.

[[record]]
compound = "COc1cc(OC)c(-c2nc3c(n2C(C)C)[C@@]2(C(=O)Nc4cc(Cl)ccc42)N(c2cc(Cl)ccc2F)C3=O)cn1 [Example S-133]"
label_value = "Not fulfilled"

[[record]]
compound = "COc1nc(C2CC2)ncc1-c1nc2c(n1C(C)C)[C@@]1(C(=O)Nc3cc(Cl)ccc31)N(c1cc(Cl)ccc1C)C2=O [Example S-121]"
label_value = "Fulfilled"

[[record]]
compound = "COc1ncc(-c2nc3c(n2C(C)C)[C@@]2(C(=O)Nc4cc(Cl)ccc42)N(c2cc(F)cc(Cl)c2)C3=O)c(OC)n1 [Example S-45]"
label_value = "Not fulfilled"

[[record]]
compound = "COc1cc(C(C)C)ccc1-c1nc2c(n1C(C)C)[C@@]1(C(=O)Nc3cc(Cl)ccc31)N(c1cc(Cl)ccc1C)C2=O [Example S-32]"
label_value = "Not fulfilled"

[[record]]
compound = "CCOc1cc(OC)c(-c2nc3c(n2C(C)C)[C@@]2(C(=O)Nc4cc(Cl)ccc42)N(c2cc(Cl)cnc2C)C3=O)cn1 [Example S-96]"
label_value = "Not fulfilled"

[[record]]
compound = "CCOc1cc(OC)c(-c2nc3c(n2C(C)C)[C@@]2(C(=O)Nc4cc(Cl)ccc42)N(c2cc(Cl)ccc2F)C3=O)cn1 [Example S-98]"
label_value = "Fulfilled"


Req: Could you tell me if the measured MRT last of COc1cc(OC(C)C)ncc1-c1nc2c(n1C(C)C)[C@@]1(C(=O)Nc3cc(Cl)ccc31)N(c1cc(Cl)ccc1C)C2=O [Example S-69] reaches 3 h or more?
Resp: Fulfilled

Req: Could you tell me if the measured MRT last of COc1ncc(-c2nc3c(n2C(C)C)[C@@]2(C(=O)Nc4cc(Cl)ccc42)N(c2cc(Cl)ccc2F)C3=O)c(OC)n1 [Example S-44] reaches 3 h or more?
Resp: Fulfilled

Req: Could you tell me if the measured MRT last of COc1cc(OC)c(-c2nc3c(n2C(C)C)[C@@]2(C(=O)Nc4cc(Cl)ccc42)N(c2cc(Cl)cnc2C)C3=O)cn1 [Example S-131] reaches 3 h or more?
Resp: Not fulfilled

Req: Could you tell me if the measured MRT last of CCOc1cc(OC)c(-c2nc3c(n2C(C)C)[C@@]2(C(=O)Nc4cc(Cl)ccc42)N(c2cc(Cl)ccc2C)C3=O)cn1 [Example S-72] reaches 3 h or more?
Resp: Fulfilled

Req: Could you tell me if the measured MRT last of COc1ccc(-c2nc3c(n2C(C)C)[C@@]2(C(=O)Nc4cc(Cl)ccc42)N(c2cc(Cl)cnc2C)C3=O)c(OC)c1 [Example S-61] reaches 3 h or more?
Resp: Not fulfilled
